# Test system: NCI-H2170
# Assay procedure: relative viability (nuclei count vs DMSO), 5 days (fraction); higher = more cells survive
# Measurement setup: first compound 0.02 µM
Parameter measured: relative viability
# output: bare number, no unit

Worked examples, 3 compounds total:
INSERT INTO assay_data (compound, value_reported) VALUES
  ('CCNC(=O)c1noc(-c2cc(C(C)C)c(O)cc2O)c1-c1ccc(CN2CCOCC2)cc1 [Luminespib] + C[C@@H](Oc1cc(-c2cnn(C3CCNCC3)c2)cnc1N)c1c(Cl)ccc(F)c1Cl [Crizotinib] (partner 1 µM)', 0.655),
  ('CN1CCN(CCOc2cc(OC3CCOCC3)c3c(Nc4c(Cl)ccc5c4OCO5)ncnc3c2)CC1 [Saracatinib] + C[C@@H](Oc1cc(-c2cnn(C3CCNCC3)c2)cnc1N)c1c(Cl)ccc(F)c1Cl [Crizotinib] (partner 1 µM)', 1.13),
  ('CCNC(=O)c1noc(-c2cc(C(C)C)c(O)cc2O)c1-c1ccc(CN2CCOCC2)cc1 [Luminespib] + COc1cc2c(Oc3ccc(NC(=O)C4(C(=O)Nc5ccc(F)cc5)CC4)cc3F)ccnc2cc1OCCCN1CCOCC1 [Foretinib] (partner 0.25 µM)', 0.806);

Now for a further compound.
In: Find the measured relative viability of CN1CCN(CCOc2cc(OC3CCOCC3)c3c(Nc4c(Cl)ccc5c4OCO5)ncnc3c2)CC1 [Saracatinib] + CC(=O)Nc1cccc(-n2c(=O)n(C3CC3)c(=O)c3c(Nc4ccc(I)cc4F)n(C)c(=O)c(C)c32)c1 [Trametinib] (partner 0.02 µM) and report it.
Out: 0.917

====

# System: NCI-H2228
# Assay procedure: relative viability (nuclei count vs DMSO), 5 days (fraction); higher = more cells survive
# Measurement setup: first compound 0.6325 µM
Listed below: relative viability values for each entry.
# output: bare number, no unit

Worked examples, 3 molecules total:
INSERT INTO measurements (molecule, parameter_measured, value_reported) VALUES
  ('CN1CCN(CCOc2cc(OC3CCOCC3)c3c(Nc4c(Cl)ccc5c4OCO5)ncnc3c2)CC1 [Saracatinib] + COc1cc2c(Oc3ccc(NC(=O)C4(C(=O)Nc5ccc(F)cc5)CC4)cc3F)ccnc2cc1OCCCN1CCOCC1 [Foretinib] (partner 0.25 µM)', 'relative viability', 0.873),
  ('CN1CCN(CCOc2cc(OC3CCOCC3)c3c(Nc4c(Cl)ccc5c4OCO5)ncnc3c2)CC1 [Saracatinib] + CC(=O)Nc1cccc(-n2c(=O)n(C3CC3)c(=O)c3c(Nc4ccc(I)cc4F)n(C)c(=O)c(C)c32)c1 [Trametinib] (partner 0.02 µM)', 'relative viability', 0.703),
  ('CN1CCN(CCOc2cc(OC3CCOCC3)c3c(Nc4c(Cl)ccc5c4OCO5)ncnc3c2)CC1 [Saracatinib] + N=C(N)NC(=N)NCCc1ccccc1 [Phenformin] (partner 250 µM)', 'relative viability', 0.346);

Now for a further molecule.
In: Jot down relative viability (NCI-H2228) of CN1CCN(CCOc2cc(OC3CCOCC3)c3c(Nc4c(Cl)ccc5c4OCO5)ncnc3c2)CC1 [Saracatinib] + CC(C)C[C@H](NC(=O)[C@H](Cc1ccccc1)NC(=O)c1cnccn1)B(O)O [Bortezomib] (partner 0.002 µM) .
Out: 1.2

====

# Tested on: NCI-H1666
# Assay procedure: relative viability (nuclei count vs DMSO), 5 days (fraction); higher = more cells survive
# Measurement setup: first compound 0.02 µM
Listed below: relative viability values for each entry.
# output: bare number, no unit

Worked examples, 2 compounds total:
INSERT INTO assay_data (compound, parameter_measured, value_reported) VALUES
  ('CN1CCN(CCOc2cc(OC3CCOCC3)c3c(Nc4c(Cl)ccc5c4OCO5)ncnc3c2)CC1 [Saracatinib] + Nc1nc2[nH]cc(CCc3ccc(C(=O)N[C@@H](CCC(=O)O)C(=O)O)cc3)c2c(=O)[nH]1 [Pemetrexed] (partner 0.2 µM)', 'relative viability', 0.877),
  ('CN1CCN(CCOc2cc(OC3CCOCC3)c3c(Nc4c(Cl)ccc5c4OCO5)ncnc3c2)CC1 [Saracatinib] + N=C(N)NC(=N)NCCc1ccccc1 [Phenformin] (partner 250 µM)', 'relative viability', 0.562);

In: Find the measured relative viability of CCNC(=O)c1noc(-c2cc(C(C)C)c(O)cc2O)c1-c1ccc(CN2CCOCC2)cc1 [Luminespib] + CC1(C)CCC(c2ccc(Cl)cc2)=C(CN2CCN(c3ccc(C(=O)NS(=O)(=O)c4ccc(N[C@H](CCN5CCOCC5)CSc5ccccc5)c(S(=O)(=O)C(F)(F)F)c4)cc3)CC2)C1 [Navitoclax] (partner 0.5 µM) and report it.
Out: 1.29

In: Find the measured relative viability of CCNC(=O)c1noc(-c2cc(C(C)C)c(O)cc2O)c1-c1ccc(CN2CCOCC2)cc1 [Luminespib] + CC(=O)Nc1cccc(-n2c(=O)n(C3CC3)c(=O)c3c(Nc4ccc(I)cc4F)n(C)c(=O)c(C)c32)c1 [Trametinib] (partner 0.02 µM) and report it.
Out: 0.942

====

# Test system: NCI-H2347
# Assay procedure: relative viability (nuclei count vs DMSO), 5 days (fraction); higher = more cells survive
# Measurement setup: first compound 0.001 µM
Parameter measured: relative viability
# output: bare number, no unit

INSERT INTO measurements (compound, value_reported) VALUES
  ('Cc1cn(-c2cc(NC(=O)c3ccc(C)c(Nc4nccc(-c5cccnc5)n4)c3)cc(C(F)(F)F)c2)cn1 [Nilotinib] + CC(C)C[C@H](NC(=O)[C@H](Cc1ccccc1)NC(=O)c1cnccn1)B(O)O [Bortezomib] (partner 0.002 µM)', 0.8);

In: Find the measured relative viability of Cc1cn(-c2cc(NC(=O)c3ccc(C)c(Nc4nccc(-c5cccnc5)n4)c3)cc(C(F)(F)F)c2)cn1 [Nilotinib] + CC(=O)Nc1cccc(-n2c(=O)n(C3CC3)c(=O)c3c(Nc4ccc(I)cc4F)n(C)c(=O)c(C)c32)c1 [Trametinib] (partner 0.02 µM) and report it.
Out: 0.267

====

# System: NCI-H3122
# Assay procedure: relative viability (nuclei count vs DMSO), 5 days (fraction); higher = more cells survive
# Measurement setup: first compound 0.2 µM
Parameter measured: relative viability
# output: bare number, no unit

In: Find the measured relative viability of CN1CCN(CCOc2cc(OC3CCOCC3)c3c(Nc4c(Cl)ccc5c4OCO5)ncnc3c2)CC1 [Saracatinib] + COc1cc2c(Oc3ccc(NC(=O)C4(C(=O)Nc5ccc(F)cc5)CC4)cc3F)ccnc2cc1OCCCN1CCOCC1 [Foretinib] (partner 0.25 µM) and report it.
Out: 0.891

In: Find the measured relative viability of CN1CCN(CCOc2cc(OC3CCOCC3)c3c(Nc4c(Cl)ccc5c4OCO5)ncnc3c2)CC1 [Saracatinib] + CCNC(=O)c1noc(-c2cc(C(C)C)c(O)cc2O)c1-c1ccc(CN2CCOCC2)cc1 [Luminespib] (partner 0.01 µM) and report it.
Out: 0.103

In: Find the measured relative viability of Cc1csc(=NC2CCCCC2)n1/N=C/c1ccc(O)c(O)c1O [MIM1] + C[C@@H](Oc1cc(-c2cnn(C3CCNCC3)c2)cnc1N)c1c(Cl)ccc(F)c1Cl [Crizotinib] (partner 1 µM) and report it.
Out: 0.272

====

# System: NCI-H2023
# Assay procedure: relative viability (nuclei count vs DMSO), 5 days (fraction); higher = more cells survive
# Measurement setup: first compound 6.325 µM
Just a reminder that ties go to N: only relative viability strictly below 0.3 counts as Y.

Previously resolved entries follow.
INSERT INTO measurements (compound, class) VALUES
  ('Cc1csc(=NC2CCCCC2)n1/N=C/c1ccc(O)c(O)c1O [MIM1] + O=C(c1cc(Cc2n[nH]c(=O)c3ccccc23)ccc1F)N1CCN(C(=O)C2CC2)CC1 [Olaparib] (partner 8 µM)', 'Y'),
  ('Cc1csc(=NC2CCCCC2)n1/N=C/c1ccc(O)c(O)c1O [MIM1] + Cc1cc(Nc2cc(N3CCN(C)CC3)nc(Sc3ccc(NC(=O)C4CC4)cc3)n2)n[nH]1 [Tozasertib] (partner 0.1 µM)', 'Y'),
  ('Cc1csc(=NC2CCCCC2)n1/N=C/c1ccc(O)c(O)c1O [MIM1] + CC(=O)Nc1cccc(-n2c(=O)n(C3CC3)c(=O)c3c(Nc4ccc(I)cc4F)n(C)c(=O)c(C)c32)c1 [Trametinib] (partner 0.02 µM)', 'Y'),
  ('Cc1csc(=NC2CCCCC2)n1/N=C/c1ccc(O)c(O)c1O [MIM1] + C[C@]1(O)C[C@@H](c2nc(-c3ccc4ccc(-c5ccccc5)nc4c3)c3c(N)nccn32)C1 [Linsitinib] (partner 1 µM)', 'N'),
  ('Cc1csc(=NC2CCCCC2)n1/N=C/c1ccc(O)c(O)c1O [MIM1] + COc1cc2c(Oc3ccc(NC(=O)C4(C(=O)Nc5ccc(F)cc5)CC4)cc3F)ccnc2cc1OCCCN1CCOCC1 [Foretinib] (partner 0.25 µM)', 'N');

Now consider a different compound.
In: Below 0.3 on relative viability? Entry Cc1csc(=NC2CCCCC2)n1/N=C/c1ccc(O)c(O)c1O [MIM1] + COc1cccc2cc(-c3nc([C@H]4CC[C@H](C(=O)O)CC4)n4ncnc(N)c34)[nH]c12 [OSI-027] (partner 0.5 µM)
Out: Y
